Reported MIC values follow for various compounds
Tested on: Escherichia coli
ASSAY_METHOD_TEXT: Antimicrobial activity against Escherichia coli ATCC 25922 after 24 hrs by broth dilution method
Format: functional
MEASUREMENT_CONDITIONS: ATCC 25922, 24 h
State just the number; it will be interpreted in µg/mL.

CC(C)C[C@@H]1NC(=O)[C@H](CCCN)NC(=O)[C@H](C(C)C)NC(=O)[C@@H]2CCCN2C(=O)[C@@H](Cc2ccccc2)NC(=O)[C@H](CC(C)C)NC(=O)[C@H](CCCN)NC(=O)[C@H](C(C)C)NC(=O)[C@H](CCCN)NC(=O)[C@H](CC(C)C)NC(=O)[C@@H]2O[C@H](CNC(=O)[C@H](C(C)C)NC(=O)[C@H](CCCN)NC1=O)[C@@H](OCc1ccccc1)[C@@H]2OCc1ccccc1 : 16

Turning now to a further record.
Challenge: Indicate the recorded MIC value for this compound: CC(C)C[C@@H]1NC(=O)[C@H](CCCN)NC(=O)[C@H](C(C)C)NC(=O)[C@@H]2CCCN2C(=O)[C@@H](Cc2ccccc2)NC(=O)[C@H](CC(C)C)NC(=O)[C@H](CCCN)NC(=O)[C@H](C(C)C)NC(=O)[C@H](CCCN)NC(=O)[C@H](CC(C)C)NC(=O)[C@@H]2CCCN2C(=O)[C@@H](Cc2ccccc2)NC(=O)[C@H](C(C)C)NC(=O)[C@H](CCCN)NC1=O
Response given: 32
